So I've got Ki readings for UniProt:P00747, take a look.
Sequence (P00747 97-580 limits assumed): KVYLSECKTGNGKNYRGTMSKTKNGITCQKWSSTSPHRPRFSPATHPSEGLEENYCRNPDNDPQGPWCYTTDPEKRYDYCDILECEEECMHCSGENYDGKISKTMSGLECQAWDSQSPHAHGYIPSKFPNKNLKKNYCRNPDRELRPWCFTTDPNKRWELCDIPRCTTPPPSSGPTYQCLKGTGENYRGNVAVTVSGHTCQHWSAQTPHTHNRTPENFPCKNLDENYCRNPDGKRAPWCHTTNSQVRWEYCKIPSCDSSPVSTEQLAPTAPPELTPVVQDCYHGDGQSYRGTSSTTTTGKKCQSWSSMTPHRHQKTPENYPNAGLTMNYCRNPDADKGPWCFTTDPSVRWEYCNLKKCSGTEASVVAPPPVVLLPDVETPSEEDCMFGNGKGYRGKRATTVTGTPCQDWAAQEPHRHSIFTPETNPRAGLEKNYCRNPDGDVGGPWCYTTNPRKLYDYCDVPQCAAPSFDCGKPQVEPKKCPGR
Sequence (P00747 581-810 limits assumed): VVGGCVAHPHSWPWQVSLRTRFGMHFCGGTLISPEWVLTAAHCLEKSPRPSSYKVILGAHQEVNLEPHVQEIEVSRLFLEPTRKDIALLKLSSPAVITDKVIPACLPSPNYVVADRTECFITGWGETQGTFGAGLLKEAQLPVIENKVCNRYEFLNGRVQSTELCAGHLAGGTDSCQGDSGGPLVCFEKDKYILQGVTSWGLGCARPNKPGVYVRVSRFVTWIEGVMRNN
QUANTITY_KIND: Ki (µM)

- MOLECULE: "N=C(N)c1cc2[nH]c(-c3cccc(OCC4CCCO4)c3O)nc2cc1F (stereo unspecified)"
  TEST_RESULT: 4.2
- MOLECULE: "N=C(N)c1ccc2nc(-c3cccc(Oc4ccccc4)c3O)[nH]c2c1"
  TEST_RESULT: 5
- MOLECULE: "CC(C)COc1cccc(-c2nc3ccc(C(=N)N)cc3[nH]2)c1O"
  TEST_RESULT: 1.3
- MOLECULE: "N=C(N)c1cc2[nH]c(-c3cccc(OC4CCCC4)c3O)nc2cc1F"
  TEST_RESULT: 1.6
- MOLECULE: "CCOc1cccc(-c2nc3cc(F)c(C(=N)N)cc3[nH]2)c1O"
  TEST_RESULT: 1.8
- MOLECULE: "CCOc1cccc(-c2nc3cc(C(=N)N)ccc3[nH]2)c1O"
  TEST_RESULT: 1.6
